Provide the recorded glycan array binding signal (z-score) for the entries that follow.
biological target: Fuc(a1-2)Gal6S(b1-4)Glc6S; assay: glycan array binding signal (z-score within array); higher = stronger binding; settings: glycan notation: IUPAC condensed, linker removed
Many of the other results were omitted from the sample, so the strongest signals are more common in it than they were.
One number for each entry.

Worked cases, glycan array binding signal (z-score) given:
| binder | valueObserved |
| --- | --- |
| LcH (Lens culinaris), P02870 (protein) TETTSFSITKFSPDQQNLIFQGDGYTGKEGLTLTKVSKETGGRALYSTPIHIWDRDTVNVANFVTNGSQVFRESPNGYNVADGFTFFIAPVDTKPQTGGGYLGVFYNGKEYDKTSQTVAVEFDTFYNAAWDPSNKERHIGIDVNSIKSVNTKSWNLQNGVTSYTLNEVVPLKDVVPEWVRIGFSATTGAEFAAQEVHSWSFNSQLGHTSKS | -0.104 |
| LEA (Lycopersicon esculentum) (protein) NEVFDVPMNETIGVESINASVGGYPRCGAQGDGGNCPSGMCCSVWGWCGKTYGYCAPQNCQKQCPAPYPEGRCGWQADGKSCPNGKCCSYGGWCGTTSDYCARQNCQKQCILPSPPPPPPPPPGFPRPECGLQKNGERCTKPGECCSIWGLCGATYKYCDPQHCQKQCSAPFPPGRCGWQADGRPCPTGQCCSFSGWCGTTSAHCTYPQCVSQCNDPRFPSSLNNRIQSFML | -0.512 |

Pending binder:
Input: # get_value(readout='glycan array binding signal (z-score)', item= UEA-I (Ulex europaeus), P22972 (protein) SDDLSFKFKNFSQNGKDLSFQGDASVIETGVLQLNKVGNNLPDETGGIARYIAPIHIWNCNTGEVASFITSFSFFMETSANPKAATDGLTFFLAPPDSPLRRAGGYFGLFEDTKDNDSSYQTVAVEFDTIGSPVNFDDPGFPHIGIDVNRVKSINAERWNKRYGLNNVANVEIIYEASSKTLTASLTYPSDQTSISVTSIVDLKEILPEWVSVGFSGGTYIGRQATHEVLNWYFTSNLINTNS )
Output: 5.33
